Property: IC50; scope: individual compounds
- measured_on: EGFR (Homo sapiens (Human))
- Sequence (P00533 25-1210): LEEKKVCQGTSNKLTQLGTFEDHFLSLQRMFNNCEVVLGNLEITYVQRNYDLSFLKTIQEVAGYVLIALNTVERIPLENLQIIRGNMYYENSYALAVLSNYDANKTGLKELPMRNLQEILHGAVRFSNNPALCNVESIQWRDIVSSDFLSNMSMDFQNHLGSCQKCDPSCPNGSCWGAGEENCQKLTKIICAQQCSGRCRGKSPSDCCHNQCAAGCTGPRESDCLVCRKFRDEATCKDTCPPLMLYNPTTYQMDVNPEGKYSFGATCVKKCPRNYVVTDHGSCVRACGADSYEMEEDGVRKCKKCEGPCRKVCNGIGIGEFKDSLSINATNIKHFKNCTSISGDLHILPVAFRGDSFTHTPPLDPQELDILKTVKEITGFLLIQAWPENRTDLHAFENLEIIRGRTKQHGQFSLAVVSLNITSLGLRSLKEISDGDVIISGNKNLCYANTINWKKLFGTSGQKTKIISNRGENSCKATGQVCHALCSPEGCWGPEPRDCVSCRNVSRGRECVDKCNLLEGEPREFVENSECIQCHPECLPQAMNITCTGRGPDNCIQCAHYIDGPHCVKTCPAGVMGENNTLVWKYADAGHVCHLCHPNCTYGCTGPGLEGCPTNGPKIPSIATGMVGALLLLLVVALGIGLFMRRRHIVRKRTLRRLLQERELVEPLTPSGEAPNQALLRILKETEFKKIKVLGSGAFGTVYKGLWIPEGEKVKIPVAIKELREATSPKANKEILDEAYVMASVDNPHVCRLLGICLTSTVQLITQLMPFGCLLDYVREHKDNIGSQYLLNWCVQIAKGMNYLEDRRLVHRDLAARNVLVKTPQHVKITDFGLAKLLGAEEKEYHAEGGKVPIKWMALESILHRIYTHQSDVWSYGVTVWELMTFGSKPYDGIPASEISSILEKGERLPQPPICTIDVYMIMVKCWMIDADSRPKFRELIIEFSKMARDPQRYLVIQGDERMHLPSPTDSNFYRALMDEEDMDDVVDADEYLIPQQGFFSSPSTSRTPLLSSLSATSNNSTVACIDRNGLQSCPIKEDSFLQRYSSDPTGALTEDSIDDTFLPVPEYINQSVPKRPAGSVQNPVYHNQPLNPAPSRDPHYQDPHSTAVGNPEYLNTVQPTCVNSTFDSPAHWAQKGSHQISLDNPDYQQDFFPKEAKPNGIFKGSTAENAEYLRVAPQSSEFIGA

Solved cases (3 shown):
compound	IC50
Cc1cc(Nc2ncnc3cnc(N4CC[C@](C)(O)C4)nc23)ccc1Oc1ccc2c(c1)ncn2C	3.83 µM
CC(=O)N1CCN(c2ncc3ncnc(Nc4ccc(Oc5ccc6c(c5)ncn6C)c(C)c4)c3n2)CC1	≥ 10 µM
Cc1cc(Nc2ncnc3cnc(N(C)C[C@@H]4COCCO4)nc23)ccc1Oc1ccc2c(c1)ncn2C	≥ 10 µM

Lookup: GET /values?readout=IC50&item= CCn1cnc2cc(Oc3ccc(Nc4ncnc5cnc(N6CCOCC6)nc45)cc3C)ccc21 [Example 75, 2,2,2-trifluoroacetate]
Found: ≥ 10 µM

Lookup: Further, for Cc1cc(Nc2ncnc3cnc(N4CC[C@@]45CCOC5)nc23)ccc1Oc1ccc2c(c1)ncn2C (single isomer, unassigned) [Example 93a] ?
Found: 1.46 µM

Lookup: Further, for Cc1cc(Nc2ncnc3cnc(N4C[C@H]5C[C@@H]4CO5)nc23)ccc1Oc1ccn2ncnc2c1 ?
Found: ≥ 10 µM

Lookup: Further, for Cn1cnc2cc(Oc3ccc(Nc4ncnc5cnc(N6CCC6)nc45)cc3Cl)ccc21.O=C(O)C(F)(F)F [Example 148, 2,2,2-trifluoroacetate] ?
Found: ≥ 10 µM

----------
- measured_on: ErbB2 WT (Homo sapiens (Human))
- Sequence (P04626 23-1255): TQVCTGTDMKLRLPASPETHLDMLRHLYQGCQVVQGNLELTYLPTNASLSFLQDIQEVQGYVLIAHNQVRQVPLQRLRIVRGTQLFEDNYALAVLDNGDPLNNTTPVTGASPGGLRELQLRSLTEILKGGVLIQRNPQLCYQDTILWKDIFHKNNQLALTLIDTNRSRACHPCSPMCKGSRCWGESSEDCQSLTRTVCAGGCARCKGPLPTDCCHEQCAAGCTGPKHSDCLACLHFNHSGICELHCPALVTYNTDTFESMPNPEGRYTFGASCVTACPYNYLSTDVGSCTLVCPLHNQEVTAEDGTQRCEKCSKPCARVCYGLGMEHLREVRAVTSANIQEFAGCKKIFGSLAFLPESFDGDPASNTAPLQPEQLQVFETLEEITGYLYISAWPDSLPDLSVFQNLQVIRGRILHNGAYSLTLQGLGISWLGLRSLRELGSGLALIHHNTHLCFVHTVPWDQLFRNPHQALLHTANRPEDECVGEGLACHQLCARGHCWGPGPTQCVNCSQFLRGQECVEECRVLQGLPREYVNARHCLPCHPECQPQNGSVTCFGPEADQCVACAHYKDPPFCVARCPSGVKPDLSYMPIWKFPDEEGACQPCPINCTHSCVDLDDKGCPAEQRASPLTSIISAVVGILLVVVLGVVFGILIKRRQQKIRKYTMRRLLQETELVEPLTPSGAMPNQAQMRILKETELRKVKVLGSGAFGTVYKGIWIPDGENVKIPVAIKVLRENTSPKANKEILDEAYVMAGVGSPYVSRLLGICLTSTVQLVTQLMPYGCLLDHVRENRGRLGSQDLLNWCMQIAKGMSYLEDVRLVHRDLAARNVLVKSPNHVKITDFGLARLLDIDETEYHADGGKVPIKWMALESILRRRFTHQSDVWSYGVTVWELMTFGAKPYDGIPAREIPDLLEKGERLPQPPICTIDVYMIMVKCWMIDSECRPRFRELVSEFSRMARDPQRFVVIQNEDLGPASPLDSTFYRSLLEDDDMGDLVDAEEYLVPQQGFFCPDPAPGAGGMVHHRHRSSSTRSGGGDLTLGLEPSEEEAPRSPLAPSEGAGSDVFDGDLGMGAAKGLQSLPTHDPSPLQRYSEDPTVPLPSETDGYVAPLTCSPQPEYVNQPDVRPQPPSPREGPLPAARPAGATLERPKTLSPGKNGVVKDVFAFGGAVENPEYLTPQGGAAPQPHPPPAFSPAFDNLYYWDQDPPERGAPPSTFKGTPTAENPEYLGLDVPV
reported_endpoint: IC50 (µM)
Your answer is read as µM, so omit the unit and give the number.

Lookup: GET /values?readout=IC50&item= CSc1ncc2ncnc(Nc3ccc(Oc4ccc5csnc5c4)c(C)c3)c2n1 [Example 11, 2,2,2-trifluoroacetate]
Found: 0.0974

Lookup: Further, for Cc1c(Oc2ccc3c(c2)ncn3C)ccc(Nc2ncnc3cnc(N4CC[C@H](O)C4)nc23)c1F [Example 458] ?
Found: 0.028

----------
- measured_on: EGFR (Homo sapiens (Human))
Property: IC50; scope: individual compounds

Solved cases (7 shown):
given_smiles	result
Cc1cc(Nc2ncnc3cnc(N4C5CCC4COC5)nc23)ccc1Oc1ccn2ncnc2c1	≥ 10 µM
Cc1cc(Nc2ncnc3cnc(N4CCC[C@@H]4C(F)F)nc23)ccc1Oc1ccc2c(c1)ncn2C	≥ 10 µM
C[C@@H]1CN(c2ncc3ncnc(Nc4ccc(Oc5ccc6c(c5)ncn6C)c(Cl)c4)c3n2)CCO1	≥ 10 µM
Cn1cnc2cc(Oc3ccc(Nc4ncnc5cnc(N6CC7(CCOC7)C6)nc45)cc3Cl)ccc21	≥ 10 µM
Cc1cc(Nc2ncnc3cnc(N4C[C@@H]5COC[C@@H]54)nc23)ccc1Oc1ccc2c(c1)ncn2C	≥ 10 µM
CON1CCN(c2ncc3ncnc(Nc4ccc(Oc5ccn6ncnc6c5)c(C)c4)c3n2)CC1	8.89 µM
Cc1cc(Nc2ncnc3cnc(N4CCCC5(COC5)C4)nc23)ccc1Oc1ccc2c(c1)ncn2C	4.74 µM

As a next step, examine the compound that follows.
Lookup: What IC50 appears in the records for this compound with EGFR (Homo sapiens (Human))? Cc1cc(Nc2ncnc3cnc(N4CC(CS(C)(=O)=O)C4)nc23)ccc1Oc1ccc2c(c1)ncn2C
Found: 6.41 µM

----------
- measured_on: ErbB2 with Exon 20 YVMA insertion (HER2-YVMA) (Homo sapiens (Human), UniProt P04626, INS775YVMA)
- Sequence (P04626 other isoform, or with tags, fused parts or gaps ins YVMA behind 775): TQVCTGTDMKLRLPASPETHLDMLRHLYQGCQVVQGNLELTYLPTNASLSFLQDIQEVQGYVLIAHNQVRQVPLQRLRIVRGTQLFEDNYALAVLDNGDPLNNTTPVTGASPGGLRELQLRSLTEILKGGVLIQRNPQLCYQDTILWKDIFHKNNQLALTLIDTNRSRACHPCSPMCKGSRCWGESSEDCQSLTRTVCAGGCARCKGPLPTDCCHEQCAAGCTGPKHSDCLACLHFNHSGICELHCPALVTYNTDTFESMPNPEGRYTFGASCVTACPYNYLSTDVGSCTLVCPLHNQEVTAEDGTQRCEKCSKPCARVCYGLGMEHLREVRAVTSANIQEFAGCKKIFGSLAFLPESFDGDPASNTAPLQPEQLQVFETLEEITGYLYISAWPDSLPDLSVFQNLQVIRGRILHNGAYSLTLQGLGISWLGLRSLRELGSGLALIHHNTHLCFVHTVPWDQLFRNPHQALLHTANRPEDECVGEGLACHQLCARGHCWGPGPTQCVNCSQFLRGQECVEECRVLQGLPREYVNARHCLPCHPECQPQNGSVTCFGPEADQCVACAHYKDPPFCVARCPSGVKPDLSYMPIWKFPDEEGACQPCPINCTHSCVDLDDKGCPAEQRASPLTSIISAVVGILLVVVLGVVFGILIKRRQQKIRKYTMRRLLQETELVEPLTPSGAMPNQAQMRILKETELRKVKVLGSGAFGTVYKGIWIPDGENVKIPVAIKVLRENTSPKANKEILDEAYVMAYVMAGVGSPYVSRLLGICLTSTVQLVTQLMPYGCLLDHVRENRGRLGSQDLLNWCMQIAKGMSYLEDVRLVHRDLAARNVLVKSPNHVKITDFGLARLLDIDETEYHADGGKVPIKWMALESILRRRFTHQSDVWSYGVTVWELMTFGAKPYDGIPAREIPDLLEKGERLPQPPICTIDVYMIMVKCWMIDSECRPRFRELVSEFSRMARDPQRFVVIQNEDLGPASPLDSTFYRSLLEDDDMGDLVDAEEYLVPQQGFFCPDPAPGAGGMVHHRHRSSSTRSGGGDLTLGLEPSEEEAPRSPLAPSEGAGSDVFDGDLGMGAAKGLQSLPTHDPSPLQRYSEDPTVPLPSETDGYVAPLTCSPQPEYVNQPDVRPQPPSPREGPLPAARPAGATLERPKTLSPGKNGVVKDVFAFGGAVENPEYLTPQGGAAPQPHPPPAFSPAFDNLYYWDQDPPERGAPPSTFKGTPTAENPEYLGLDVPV
- test_method_notes: Cellular phosphorylation assay, constitutive ErbB2 phosphorylation (Y1196) in engineered NIH 3T3 cells, Assay 4
- Procedure: Serially diluted compounds were added to the plates for 1 hour at 37° C./5% CO2. EGFR WT cells were stimulated with 100 ng/ml rEGF for an additional 10 minutes at 37° C./5% CO2. After compound incubation, medium was removed from the cells, which were then fixed in 3.7% formaldehyde in PBS at room temperature for 20 minutes. […] Cells were then washed and analyzed for fluorescence at both wavelengths using the Odyssey Infrared Imaging System (LI-COR Biosciences). […]
reported_endpoint: IC50 (µM)
Your answer is read as µM, so omit the unit and give the number.

molecule	result_number
Cc1c(Oc2ccn3ncnc3c2)ccc(Nc2ncnc3cnc(N4CC[C@](C)(O)C4)nc23)c1F	1.15
Cc1cc(Nc2ncnc3cnc(N4CC5(CCN(C)C5=O)C4)nc23)ccc1Oc1ccc2c(c1)ncn2C	0.185
Cc1cc(Nc2ncnc3cnc(-c4cnco4)nc23)ccc1Oc1ccc2c(c1)ncn2C	0.0485
Cc1c(Oc2ccc3c(c2)ncn3C)ccc(Nc2ncnc3cnc(N(C)C)nc23)c1F [Example 71, 2,2,2-trifluoroacetate]	0.0766
Cc1cc(Nc2ncnc3cnc(N4CC[C@H]4C(C)(C)O)nc23)ccc1Oc1ccn2ncnc2c1	2.5

Lookup: GET /values?readout=IC50&item= Cc1cc(Nc2ncnc3cnc(N4CC5CCOC5C4)nc23)ccc1Oc1ccc2c(c1)ncn2C (stereo not drawn)
Found: 0.0186

Lookup: Further, for Clc1cc(Nc2ncnc3cnc(N4C[C@H]5C[C@@H]4CO5)nc23)ccc1Oc1ccn2ncnc2c1 ?
Found: 0.229
